Exercise: state measured composite z-score for each of the molecules provided.
target: Follistatin (Homo sapiens); assay: follistatin binders on small-molecule microarrays, primary screen, biochemical, small-molecule microarray, 635/667 nm fluorescence (AID 1132); conditions: FST binding, 635 nm fluorescence, higher = more signal
Could you keep your reply to the number by itself?

# get_value(readout= composite z-score, system= Follistatin (Homo sapiens)) for COC(=O)[C@@]1(Cc2ccc(F)cc2)[C@H]2c3cc(C(=O)N(C)C)n(CC4CC4)c3C[C@H]2CN1C(=O)c1ccccc1
0.581

Give the reported composite z-score for CS(=O)(=O)CCOC(=O)C1=CC(CCCO)=CC(c2ccc(CN3CCCC3)cc2)N(Cc2cc3c(cc2Br)OCO3)C=C1C(=O)OCCS(C)(=O)=O (centres undefined) (system: Follistatin (Homo sapiens)).
0.694

So what composite z-score did CC(C)c1ccc(NN2C(C(O)c3cc(C(F)(F)F)cc(C(F)(F)F)c3)C=CC3C(=O)N(c4ccccc4)C(=O)C32)cc1 (centres undefined) get with Follistatin (Homo sapiens)?
-0.105

Which composite z-score is reported with Follistatin (Homo sapiens) for this entry: O=C(NCc1ccc(F)cc1)[C@H]1C[C@H]2C(=O)N[C@@H](Cc3ccccc3)C(=O)N2[C@H]1c1ccc(O)cc1 ?
1.38

Value wanted: composite z-score (Follistatin (Homo sapiens)) of entry C[N+](C)(C)CCCC[C@@H]1NC(=O)[C@@H]2C[C@H](C(=O)NCCCCCN)[C@H](c3cccc(OCCO)c3)N2C1=O
0.597

Lookup: composite z-score / Follistatin (Homo sapiens) / COC(=O)[C@@]1(Cc2ccc(F)cc2)[C@H]2c3cc(C(=O)N4CCCC4)n(Cc4ccc(C)o4)c3C[C@H]2CN1C(=O)c1ccccc1
0.4

composite z-score of C=CCNC(=O)[C@@H]1[C@H]2C(=O)O[C@H](c3ccccc3)[C@H](c3ccccc3)N2[C@H](c2ccc(OCCO)cc2)[C@@]12C(=O)Nc1ccc(C#Cc3ccc(OC)cc3)cc12 on Follistatin (Homo sapiens)?
1.42

// map CCCCC(=C=CC[C@@H](O)c1ccccc1OCCO)CCO to recorded composite z-score (system: Follistatin (Homo sapiens))
0.531

# value lookup — system Follistatin (Homo sapiens), readout composite z-score, item COc1ccc(C(O)C2C=CC3C(=O)NC(=O)C3N2Nc2ccccn2)c2ccccc12 (centres undefined)
0.488

Give Follistatin (Homo sapiens) composite z-score for C=C(/C(=C/C[C@@H](OC(C)=O)c1ccc(OCCO)cc1)c1cnc2ccccc2c1)C(C)C
1.1

For the record [N-]=[N+]=NCc1ccccc1C[C@]1(C(=O)NCC(O)CO)N=C(c2ccc(OCCCO)cc2)O[C@H]1c1ccccc1 (some centres undefined) , what value of composite z-score is listed for Follistatin (Homo sapiens)?
0.263

Follistatin (Homo sapiens) / composite z-score / CC(=O)NCCCC[C@@H]1NC(=O)[C@@H]2C[C@H](C(=O)NCCCCN(C)C)[C@H](c3cccc(OCCO)c3)N2C1=O : value?
1.21

Checklist item: composite z-score tested on Follistatin (Homo sapiens), entry CCOC(=O)C[C@H]1[C@H](OC(=O)Cc2ccc3c(c2)OCO3)[C@@H](NC(=O)c2ccc(-c3ccccc3)cc2)c2cc(OCCCO)ccc2N1C(=O)c1ccc2ccccc2n1 , value?
0.46

Write down the reported composite z-score of C=CCOC(=O)[C@H]1[C@@H]2C(=O)O[C@@H](c3ccccc3)[C@@H](c3ccccc3)N2[C@@H](c2ccc(OCCOC(=O)[C@@H]3C[C@@H]4C(=O)N[C@@H](CCCC[N+](C)(C)C)C(=O)N4[C@@H]3c3ccc(O)cc3)cc2)[C@]12C(=O)Nc1ccccc12 , test system: Follistatin (Homo sapiens).
1.26

====

assay: basal HepG2 mitochondrial membrane potential changes, profiling panel, cell-based, JC-1 fluorescence, 24 h, 100 nL compound (AID 1167); conditions: higher = more signal; note: test concentration not given here
Mark No for z-score values under 0.6, and Yes for everything at or above.

Could you verify whether the entry CC(=O)N1Cc2ccccc2C[C@@]2(COC(c3ccc(OCCCO)cc3)=N2)C1=O shows z-score of no less than 0.6?
Yes

Can COc1ccc([Si](C)(C)[C@H]2[C@H](CCO)O[C@@]3(C(=O)N(Cc4ccc(N5C(=O)COc6ccccc65)cc4)c4ccccc43)[C@@H]2C)cc1 be said to have z-score at or above 0.6?
No

Dear colleague, could you confirm whether [N-]=[N+]=NCc1ccccc1C[C@]1(C(=O)N2CCOCC2)N=C(c2ccc(OCCCO)cc2)O[C@H]1c1ccccc1N=[N+]=[N-] has z-score at or above 0.6?
Yes

Could you verify whether the entry [N-]=[N+]=NCc1ccccc1[C@H]1OC(c2ccc(OCCCO)cc2)=N[C@@]1(Cc1ccccc1)C(=O)NCc1ccccc1 shows z-score of no less than 0.6?
No

Could you verify whether the entry COCCOC(=O)N1C(=O)[C@@]2(c3ccccc31)[C@H](c1ccccc1OCCO)N1[C@H](c3ccccc3)[C@H](c3ccccc3)OC(=O)[C@H]1[C@@H]2C(=O)Nc1nc2ccccc2s1 shows z-score of no less than 0.6?
No

Assess whether reported z-score for CC(C)C(CO)N1C(=O)[C@@H]2[C@H]3C(=O)OCC=C[C@H]3OC23C=CCN(C(C)C)C(=O)[C@@H]13 (stereo not given in full) sits at 0.6 or higher.
No

Does COc1ccc(CCNC(=O)[C@@H]2c3ccccc3C(=O)N(C3Cc4ccccc4C3)[C@H]2c2ccc(CO)cc2)cc1 have a reported z-score of at least 0.6?
Yes

Does the reported z-score for O=C1O[C@@H](c2ccccc2)[C@@H](c2ccccc2)N2[C@@H](c3ccccc3OCCO)[C@]3(C(=O)Nc4ccc(C#CC5=CCCCC5)cc43)[C@@H](C(=O)Nc3nc4ccccc4s3)[C@H]12 fall at or above the 0.6 mark?
No

Textbook exercise: given the entry CC(C)(C)C(=O)N[C@@H](c1ccc(Cl)cc1)[C@]1(C)C[C@H]1C1CCCCC1 , state whether its z-score is greater than or equal to 0.6.
Yes

Quick check, z-score >= 0.6? CN1C(=O)C2C=CC(C(O)C3=C[C@H]4C[C@@H](C3)C4(C)C)N(Nc3ccccc3)C2C1=O (stereo not given in full)
No

Kindly determine if z-score recorded for COCCCN1C(=O)[C@@]2(Cc3ccccc31)c1ccccc1C(=O)N(Cc1ccccc1C(F)(F)F)[C@H]2c1ccc(CO)cc1 is above or exactly 0.6.
No

Quick check, z-score >= 0.6? C=CC[C@]12N=C(c3ccc(OCCCO)cc3)O[C@H]1c1ccccc1N(Cc1ccccc1)C2=O
No

Is z-score for CN1C(=O)C2C=CC(C(O)c3ccc(-c4ccccc4)s3)N(N(c3ccccc3)c3ccccc3)C2C1=O (stereo not given) at or above 0.6?
Yes

Could you please find out whether NCCCCCNC(=O)[C@@H]1C[C@@H]2C(=O)NCC(=O)N2[C@@H]1c1ccc(O)cc1 has z-score that meets 0.6 or exceeds it?
Yes

====

assay: modulators of HCV replicon luciferase signal, primary screen, HCV replication inhibitor project, Huh7 cells, luciferase reporter (AID 1109); settings: 48 h, higher = more signal;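 note: huh7 hepatoma cells harbouring a luciferase neomycin HCV replicon reporter; luciferase luminescence as measure of HCV replicon replication; test concentration not given here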
Class yes (1): z-score at least -2. Class no (0): z-score below -2.

Hi team, for O=C1c2ccccc2[C@@]2(Cc3ccccc3N(CC(F)(F)F)C2=O)[C@H](c2ccc(CO)cc2)N1Cc1ccccc1Cl , is the recorded z-score at or above -2?
yes (1)

In plain terms: is recorded z-score at least -2 for COCCOC(=O)N1C(=O)[C@@]2(c3cc(C#Cc4ccc(OC)cc4)ccc31)[C@H](c1ccc(O)cc1)N1[C@H](c3ccccc3)[C@H](c3ccccc3)OC(=O)[C@H]1[C@@H]2C(=O)NC[C@H](O)c1ccccc1 ?
no (0)

Is z-score for O=C(NCc1ccc(F)cc1)[C@H]1C[C@H]2C(=O)N[C@@H](Cc3ccccc3)C(=O)N2[C@H]1c1ccc(O)cc1 at or above -2?
yes (1)

Hi, just wondering whether C=C(COC)/C(=C/C[C@H](OC(=O)c1ccncc1)c1ccc(OCCO)cc1)c1cnc2ccccc2c1 shows z-score of -2 or higher.
yes (1)

Confirm if z-score reported for the compound COc1ccc(C(O)C2C=CC3C(=O)N(c4ccccc4)C(=O)C3N2Nc2ccc(C(C)C)cc2)cc1OCc1ccccc1 (stereo not drawn) is -2 or above.
yes (1)

Item C=C[C@H](COC(C)=O)N(C(=O)OC(C)(C)C)S(=O)(=O)c1ccc(Br)cc1 with z-score of -2 or above?
yes (1)

Record CCCCC(O)C1C=CC2C(=O)N(c3ccccc3)C(=O)C2N1Nc1ccccc1F (stereo not drawn) ; criterion: z-score no lower than -2. Met?
yes (1)

Is reported z-score greater than or equal to -2 here: COc1ccc(C(=O)Nc2cccc(CN3C(=O)[C@]4(O[C@H](CCO)[C@@H]([Si](C)(C)c5ccc(OC)cc5)[C@@H]4C)c4ccccc43)c2)cc1
no (0)

Reported z-score reaches at least -2 for C=CCOC(=O)[C@H]1[C@@H]2C(=O)O[C@@H](c3ccccc3)[C@@H](c3ccccc3)N2[C@@H](c2ccc(OCCOC(=O)[C@@H]3C[C@@H]4C(=O)N5CCC[C@H]5C(=O)N4[C@@H]3c3cccc(OCCO)c3)cc2)[C@]12C(=O)Nc1ccccc12 ?
yes (1)

Hello, I need to know if COCCCNC(=O)[C@@]1(Cc2ccccc2)N=C(c2ccc(OCCCO)cc2)O[C@H]1c1ccccc1 has measured z-score not below -2. Thanks!
yes (1)

Confirm if z-score reported for the compound COCCOC(=O)N1C(=O)[C@@]2(c3cc(C#Cc4ccc(OC)cc4)ccc31)[C@H](C(=O)N1CCCCCCC1)[C@H]1C(=O)O[C@H](c3ccccc3)[C@H](c3ccccc3)N1[C@@H]2c1ccc(OCCO)cc1 is -2 or above.
yes (1)
